# Test system: pBg12-GUS-tNOS (β-1.3-glucanase PR-2 type gene promoter)
# test: β-glucuronidase activity in pBg12-GUS-tNOS Arabidopsis plants upon chemical treatment
# Assay type: in vivo
# reported-conditions: treated leaves, 48 h; JA 500 μM, MeJA 50 μM, SA 5 mM, INA 1 mg/ml, BTH 300 μM, paraquat 25 μM, ethylene 25 ppm
assay-readout: β-glucuronidase activity in pBg12-GUS-tNOS plants

smiles_data=CSC(=O)c1cccc2nnsc12 reported_result="markedly increased"
smiles_data=O=C(O)c1ccccc1O reported_result="markedly increased"
smiles_data=O=C(O)c1cc(Cl)nc(Cl)c1 reported_result="markedly increased"

====

# Tested on: plant defensin gene expression (PDF1.2)
# test: Induction of plant defensins in Arabidopsis leaves upon chemical treatments (RNA gel blot, ELISA)
# Format: in vivo
# reported-conditions: […]; SA 5 mM, INA 1 mg/mL, paraquat 25 μM, rose bengal 20 mM, methyl jasmonate 45 μM in 0.1% ethanol, ethylene 20 ppm
assay-readout: plant defensin gene expression (RNA blot analysis, ELISA)

smiles_data=O=C(O)c1cc(Cl)nc(Cl)c1 reported_result="no induction"
smiles_data=O=C([O-])c1c(Cl)c(Cl)c(Cl)c(Cl)c1-c1c2cc(I)c(=O)c(I)c-2oc2c(I)c([O-])c(I)cc12.[Na+].[Na+] reported_result="strongly induced"
smiles_data=C[n+]1ccc(-c2cc[n+](C)cc2)cc1 reported_result="strongly induced"
smiles_data=O=C(O)c1ccccc1O reported_result="no induction"

====

# Test system: pPDF1.2-GUS-tNOS reporter gene
# test: β-glucuronidase activity in four-week-old pPDF1.2-GUS-tNOS Arabidopsis plants upon chemical treatment
# Type: in vivo
# reported-conditions: treated leaves, 48 hours; JA 500 μM, MeJA 50 μM, SA 5 mM, INA 1 mg/ml, BTH 300 μM, paraquat 25 μM, ethylene 25 ppm
assay-readout: induction of the pPDF1.2-GUS-tNOS reporter gene (β-glucuronidase activity)

# count of solved cases: 5
compound="CC/C=C\\CC1C(=O)CCC1CC(=O)OC (stereo not drawn) [methyl jasmonate]" reported_result=induced
compound=C[n+]1ccc(-c2cc[n+](C)cc2)cc1 reported_result=induced
compound=CC/C=C\C[C@H]1C(=O)CC[C@@H]1CC(=O)O reported_result=induced
compound=O=C(O)c1ccccc1O reported_result="without effect"
compound=CSC(=O)c1cccc2nnsc12 reported_result="without effect"

Answer with the recorded induction of the pPDF1.2-GUS-tNOS reporter gene (β-glucuronidase activity) for the compound listed here: O=C(O)c1cc(Cl)nc(Cl)c1
without effect
